B1: tRNA (parent)
chain: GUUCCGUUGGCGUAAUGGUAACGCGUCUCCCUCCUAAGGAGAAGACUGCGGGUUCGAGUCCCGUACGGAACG

# Variants of: B1
# measurement-notes: yeast fitness relative to wild type (ratio to wild type); higher = fitter; tRNA-Arg(CCU), competitive growth, 37 C, YPD
This sample holds only a part of the variants without activity.
test-readout: yeast fitness

Examples with answers:
{"columns": ["mutation-string", "yeast fitness"],
 "data": [
  ["U3A G17A C22U A45G", "≤ 0.5"],
  ["C5G G17A C22U U28C C46U G58A", "≤ 0.5"]
]}

[ask] Which yeast fitness value is on record for A20G C34G ?
[reply] 0.68

[ask] Which yeast fitness value is on record for U2A G50C U59C C60A ?
[reply] 0.877

[ask] Which yeast fitness value is on record for A15C C27U G63A ?
[reply] ≤ 0.5

[ask] Which yeast fitness value is on record for U8A G9A A36C C61G G67C ?
[reply] 0.797

[ask] Which yeast fitness value is on record for C24A C33U C62U ?
[reply] ≤ 0.5

[ask] Which yeast fitness value is on record for C11A C27U C33U U35C A57U ?
[reply] ≤ 0.5

[ask] Which yeast fitness value is on record for C11U G17A A40C ?
[reply] ≤ 0.5

[ask] Which yeast fitness value is on record for C4G G17A A40G ?
[reply] ≤ 0.5

[ask] Which yeast fitness value is on record for G6C G23A C34G ?
[reply] ≤ 0.5

[ask] Which yeast fitness value is on record for A14U A15U C49U G56C ?
[reply] ≤ 0.5

[ask] Which yeast fitness value is on record for U8G A20G A37G A43G A70U ?
[reply] ≤ 0.5

[ask] Which yeast fitness value is on record for C31A C34U U54C A69C ?
[reply] ≤ 0.5

[ask] Which yeast fitness value is on record for G10C U13A C31A C62U ?
[reply] ≤ 0.5
